Origin of the recorded values: patent US20250270319A1

Target: T1, recombinant human CD33 protein (Sino Biologicals) (human, UniProt P20138 18-259)
T1 construct: Bought protein; also called recombinant CD33
T1 sequence (P20138 18-259 limits assumed): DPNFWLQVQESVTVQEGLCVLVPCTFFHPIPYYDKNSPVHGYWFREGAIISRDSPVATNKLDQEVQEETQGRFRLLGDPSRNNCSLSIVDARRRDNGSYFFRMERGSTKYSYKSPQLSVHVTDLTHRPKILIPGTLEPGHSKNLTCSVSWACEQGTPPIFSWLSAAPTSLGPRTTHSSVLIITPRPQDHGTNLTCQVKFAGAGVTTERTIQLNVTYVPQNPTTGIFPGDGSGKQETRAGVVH
Test: BLI (ForteBio), antibody on anti-human Fc sensor, CD33 10 nM
Procedure: Affinity parameters of the antibody variants for human CD33 were measured by BioLayer Interferometry in a ForteBio assay according to standard techniques (Estep et al. (2013) MAbs 5(2): 270-8) and were compared to those of the parental antibody (antibody 6C7H8) and the parental humanized antibody (antibody 6C71H5). Briefly, the antibodies were captured on anti-human Fc Biosensors (Pall ForteBio). […] Apparent affinity constants (KD) were calculated from the ratio kd/kₐ.
readout kind: kon (M⁻¹ s⁻¹)
API: value field is a number in M⁻¹ s⁻¹; no unit string.

Some binders with known kon results, for comparison:
What the record says about anti-CD33 antibody 6C7H27 (antibody, V domains shown, VH/VL only) VH: EVQLVESGGGLVQPGGSLRLSCAGSGFTFSDYTMNWVRQAPGKGLEWVAEIRLKSNNYVTNYAASVKGRFTISRDDSKNSVYLQMNSLKTEDTGVYYCTRAGYYVPFAYWGQGTLVTVSS VL: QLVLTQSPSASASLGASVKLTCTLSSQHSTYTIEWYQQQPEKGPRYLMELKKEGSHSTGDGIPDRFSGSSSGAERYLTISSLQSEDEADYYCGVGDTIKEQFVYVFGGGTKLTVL : kon is 1.34e+06

What the record says about anti-CD33 antibody 6C7H29 (antibody, V domains shown, VH/VL only) VH: EVQLVESGGGLVQPGGSLRLSCAGSGFTFSAYSMNWVRQAPGKGLEWVAEIRLKSNNYVTNYAASVKGRFTISRDDSKNSVYLQMNSLKTEDTGVYYCTRAGYYVPFAYWGQGTLVTVSS VL: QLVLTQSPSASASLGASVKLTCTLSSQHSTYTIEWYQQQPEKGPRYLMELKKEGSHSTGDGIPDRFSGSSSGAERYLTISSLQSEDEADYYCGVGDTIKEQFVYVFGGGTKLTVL : kon is 875000

***
What the record says about anti-CD33 antibody 6C7H10 (antibody, IgG1, V domains shown, VH/VL only; also called 6C7H10 IgG1) VH: EVQLVESGGGLVQPGGSLRLSCAASGFTFSEYAMNWVRQAPGKGLEWVGEIRLKSNNYVTNYAASVKGRFTISRDDSKNSVYLQMNSLKTEDTGVYYCTRAGYYVPFAYWGQGTLVTVSS VL: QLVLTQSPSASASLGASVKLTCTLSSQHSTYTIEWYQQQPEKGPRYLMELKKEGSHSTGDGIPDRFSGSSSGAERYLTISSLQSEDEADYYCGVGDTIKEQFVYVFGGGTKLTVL : kon is 1.47e+06
